# tgt: T1, human IL-15Rα (human, UniProt Q13261 31-205, limits assumed)
# T1 construct: also called hIL-15Rα; IL-15 receptor alpha
# assay-method-text: SPR, steady state
observable: Kd (nM)

As a guide, the following entries are already answered.
[[record]]
binder = "hIL-15 V49R/I68M (ligand) NWVNVISDLKKIEDLIQSMHIDATLYTESDVHPSCKVTAMKCFLLELQRISLESGDASIHDTVENLIMLANNSLSSNGNVTESGCKECEELEEKNIKEFLQSFVHIVQMFINTGGGGSGHHHHHHHHGGGLNDIFEAQKIEWHE"
observable = "Kd"
reported_value = 96.2

[[record]]
binder = "hIL-15 V49R/N1E (ligand) EWVNVISDLKKIEDLIQSMHIDATLYTESDVHPSCKVTAMKCFLLELQRISLESGDASIHDTVENLIILANNSLSSNGNVTESGCKECEELEEKNIKEFLQSFVHIVQMFINTGGGGSGHHHHHHHHGGGLNDIFEAQKIEWHE"
observable = "Kd"
reported_value = 171

[[record]]
binder = "hIL-15 V49R/N4R (ligand) NWVRVISDLKKIEDLIQSMHIDATLYTESDVHPSCKVTAMKCFLLELQRISLESGDASIHDTVENLIILANNSLSSNGNVTESGCKECEELEEKNIKEFLQSFVHIVQMFINTGGGGSGHHHHHHHHGGGLNDIFEAQKIEWHE"
observable = "Kd"
reported_value = 56.1

[[record]]
binder = "hIL-15 V49R/K10W (ligand) NWVNVISDLWKIEDLIQSMHIDATLYTESDVHPSCKVTAMKCFLLELQRISLESGDASIHDTVENLIILANNSLSSNGNVTESGCKECEELEEKNIKEFLQSFVHIVQMFINTGGGGSGHHHHHHHHGGGLNDIFEAQKIEWHE"
observable = "Kd"
reported_value = 101

[[record]]
binder = "hIL-15 V49R/H32G (ligand) NWVNVISDLKKIEDLIQSMHIDATLYTESDVGPSCKVTAMKCFLLELQRISLESGDASIHDTVENLIILANNSLSSNGNVTESGCKECEELEEKNIKEFLQSFVHIVQMFINTGGGGSGHHHHHHHHGGGLNDIFEAQKIEWHE"
observable = "Kd"
reported_value = 249


I: hIL-15 V49R/I111S (ligand) NWVNVISDLKKIEDLIQSMHIDATLYTESDVHPSCKVTAMKCFLLELQRISLESGDASIHDTVENLIILANNSLSSNGNVTESGCKECEELEEKNIKEFLQSFVHIVQMFSNTGGGGSGHHHHHHHHGGGLNDIFEAQKIEWHE
II: hIL-15 V49R/S7Q (ligand) NWVNVIQDLKKIEDLIQSMHIDATLYTESDVHPSCKVTAMKCFLLELQRISLESGDASIHDTVENLIILANNSLSSNGNVTESGCKECEELEEKNIKEFLQSFVHIVQMFINTGGGGSGHHHHHHHHGGGLNDIFEAQKIEWHE
Which of the two items, I and II , has the greater recorded Kd? Give the label of your selection.
I
(I: 223 nM, II: 88.1 nM)

a: hIL-15 V49R/H32L (ligand) NWVNVISDLKKIEDLIQSMHIDATLYTESDVLPSCKVTAMKCFLLELQRISLESGDASIHDTVENLIILANNSLSSNGNVTESGCKECEELEEKNIKEFLQSFVHIVQMFINTGGGGSGHHHHHHHHGGGLNDIFEAQKIEWHE
b: hIL-15 V49R/K10L (ligand) NWVNVISDLLKIEDLIQSMHIDATLYTESDVHPSCKVTAMKCFLLELQRISLESGDASIHDTVENLIILANNSLSSNGNVTESGCKECEELEEKNIKEFLQSFVHIVQMFINTGGGGSGHHHHHHHHGGGLNDIFEAQKIEWHE
c: hIL-15 V49R/S7H (ligand) NWVNVIHDLKKIEDLIQSMHIDATLYTESDVHPSCKVTAMKCFLLELQRISLESGDASIHDTVENLIILANNSLSSNGNVTESGCKECEELEEKNIKEFLQSFVHIVQMFINTGGGGSGHHHHHHHHGGGLNDIFEAQKIEWHE
Arrange the 3 binders from largest to smallest Kd. Give your ranking as a list of the labels in the requested order.
a, b, c
(a: 189 nM, b: 124 nM, c: 75.6 nM)

Numbers sourced from patent US20210324028A1.
